Property: log10 of EC50; scope: individual molecules
Test system: FXR (Homo sapiens (Human), UniProt Q96RI1)
Sequence (Q96RI1 262-486): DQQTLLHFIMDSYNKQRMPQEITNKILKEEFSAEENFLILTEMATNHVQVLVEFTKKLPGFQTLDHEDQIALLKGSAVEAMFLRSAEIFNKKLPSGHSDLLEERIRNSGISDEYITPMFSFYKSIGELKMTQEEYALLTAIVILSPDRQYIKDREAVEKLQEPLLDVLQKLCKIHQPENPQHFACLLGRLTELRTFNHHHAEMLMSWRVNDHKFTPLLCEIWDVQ
Assay explanation: FXR EC50 (FXR agonist activity reported with each example)
Format: cell-based
// do not treat as linear: log10 of EC50, unit nM

Recorded log10 of EC50, per entry:
INSERT INTO assay_data (smiles_record, test_system, metric, reported) VALUES
  ('O=C(O)c1cc(O)c2cc(OCC34CCC(OCc5c(-c6c(Cl)cncc6Cl)noc5C5CC5)(CC3)CC4)ccc2n1', 'FXR (Homo sapiens (Human), UniProt Q96RI1)', 'log10 of EC50', 2.23),
  ('O=C(O)c1cc(OC2COC2)c2cc(OCC34CCC(OCc5c(-c6c(Cl)cncc6Cl)noc5C5CC5)(CC3)CC4)cc(F)c2n1', 'FXR (Homo sapiens (Human), UniProt Q96RI1)', 'log10 of EC50', 1.67),
  ('O=C(O)c1ccc(OCC2CC2)c2nc(C34CCC(OCc5c(-c6c(Cl)cncc6Cl)noc5C5CC5)(CC3)CC4)ccc12', 'FXR (Homo sapiens (Human), UniProt Q96RI1)', 'log10 of EC50', 1.38),
  ('O=C(O)c1cc(C(F)(F)F)c2cc(OCC34CCC(OCc5c(-c6ccccc6C(F)(F)F)noc5C5CC5)(CC3)CC4)ccc2n1', 'FXR (Homo sapiens (Human), UniProt Q96RI1)', 'log10 of EC50', 2.40);

Which measured log10 of EC50 value corresponds to "O=C(O)c1ccc(O)c2nc(C34CCC(OCc5c(-c6c(Cl)cncc6Cl)noc5C5CC5)(CC3)CC4)ccc12" ? 1.28

"O=C(O)c1cccc2c1CCN(C(=O)C13CCC(OCc4c(-c5c(Cl)cccc5Cl)noc4C4CC4)(CC1)CC3)C2" , same question. 3.15

"O=C(O)c1cccc(NC(=O)C23CCC(COCc4c(-c5c(Cl)cccc5Cl)noc4C4CC4)(CC2)CC3)c1Cl" , same question. 3.15

---

Test system: FXR (Homo sapiens (Human), UniProt Q96RI1)
Assay explanation: FXR EC50 (FXR agonist activity reported with each example)
Type: cell-based
pEC50: −log10 of the molar value.
Mark criterion met for reported pEC50 of 7 or greater; mark criterion not met for anything smaller.

Look over these answered cases.
INSERT INTO assay_data (smiles_record, category) VALUES
  ('CCn1nc(C(=O)O)c2ccc(C34CCC(OCc5c(-c6c(Cl)cncc6Cl)noc5C5CC5)(CC3)CC4)nc21', 'criterion met'),
  ('Cc1c(OCC23CCC(OCc4c(-c5c(Cl)cccc5Cl)noc4C4CC4)(CC2)CC3)cccc1C(=O)O', 'criterion not met'),
  ('O=C(O)c1cncc(OCC23CCC(OCc4c(-c5c(Cl)cccc5Cl)noc4C4CC4)(CC2)CC3)n1', 'criterion not met');

Okay, now this molecule:
Entry "O=C(O)c1cc(F)cn2c(C#CC34CCC(OCc5c(-c6c(Cl)cncc6Cl)noc5C5CC5)(CC3)CC4)cnc12" : is its pEC50 no less than 7? criterion met

---

Test system: FXR (Homo sapiens (Human))
Assay explanation: transient human FXR/Gal4-luciferase reporter assay
Assay type: cell-based
Conditions: Gal4-hFXR LBD fusion in HEK293 reporter cells; relative to 8 μM GW-4064
pEC50: −log10 of the molar value.
Mark TRUE for reported pEC50 of 6 or greater; mark FALSE for anything smaller.

INSERT INTO results (compound, category) VALUES
  ('O=C(O)c1cc(N2CCOCC2)c2nc(C34CCC(OCc5c(-c6c(Cl)cncc6Cl)noc5C5CC5)(CC3)CC4)ccc2c1', 'TRUE');

Entry O=C(O)c1cc2ccc(C#CC34CCC(OCc5c(-c6c(Cl)cncc6Cl)noc5C5CC5)(CC3)CC4)cc2c(N2CCC(O)C2)n1 (stereo not shown) : is its pEC50 no less than 6? TRUE

"O=C(O)COc1ccc(/C=C/C23CCC(OCc4c(-c5c(Cl)cncc5Cl)noc4C4CC4)(CC2)CC3)cn1" , same question. FALSE

"O=C(O)c1cc2ccc(/C=C/C34CCC(OCc5c(-c6c(Cl)cncc6Cl)noc5C5CC5)(CC3)CC4)cc2c(N2CC(CO)C2)n1" , same question. TRUE

"Cc1c(OCC23CCC(OCc4c(-c5c(Cl)cncc5Cl)noc4C4CC4)(CC2)CC3)nn(CC2COC2)c1C(=O)O" , same question. FALSE

"O=C(O)c1cc(C(F)(F)F)cn2c(C#CC34CCC(OCc5c(-c6c(Cl)cncc6Cl)noc5C5CC5)(CC3)CC4)cnc12" , same question. TRUE

"O=C(O)Cc1ccc(/C=C/C23CCC(OCc4c(-c5c(Cl)cncc5Cl)noc4C4CC4)(CC2)CC3)c(C(F)(F)F)c1" , same question. TRUE

"COCCCOc1cc(C(=O)O)cc2ccc(C34CCC(OCc5c(-c6c(Cl)cncc6Cl)noc5C5CC5)(CC3)CC4)nc12" , same question. TRUE

---

Test system: FXR (Homo sapiens (Human), UniProt Q96RI1)
Assay explanation: FXR EC50 (FXR agonist activity reported with each example)
Type: cell-based
Param label: returns Condition met when EC50 < 200 nM, returns Condition not met otherwise, including exact equality.

Look over these answered cases.
INSERT INTO measurements (compound, category) VALUES
  ('O=C(O)c1ccc(-c2noc(C34CCC(OCc5c(-c6ccccc6OC(F)(F)F)noc5C5CC5)(CC3)CC4)n2)cc1 [Example 2]', 'Condition met'),
  ('O=C(O)c1cccc(NC(=O)C23CCC(C=Cc4c(-c5c(Cl)cccc5Cl)noc4C4CC4)(CC2)CC3)c1 [Example 188]', 'Condition met'),
  ('O=C(O)c1ccc(OCC23CCC(OCc4c(-c5c(Cl)cncc5Cl)noc4C4CC4)(CC2)CC3)nc1 [Example 114]', 'Condition met'),
  ('COc1cc(-c2noc(C34CCC(OCc5c(-c6c(Cl)cncc6Cl)noc5C5CC5)(CC3)CC4)n2)cc(C(=O)O)n1 [Example 257]', 'Condition met'),
  ('O=C(O)c1cccc(/C=C/C23CCC(OCc4c(-c5ccccc5OC(F)(F)F)noc4C4CC4)(CC2)CC3)c1 [Example 40]', 'Condition met'),
  ('CCCc1cc(C(=O)O)nc2ccc(OCC34CCC(OCc5c(-c6c(Cl)cncc6Cl)noc5C5CC5)(CC3)CC4)cc12 [Example 338]', 'Condition met'),
  ('O=C(O)c1cnc(OCC23CCC(OCc4c(-c5c(Cl)cncc5Cl)noc4C4CC4)(CC2)CC3)c(C(F)(F)F)c1 [Example 279]', 'Condition met'),
  ('CS(=O)(=O)NC(=O)c1cc(-c2noc(C34CCC(/C=C/c5c(-c6c(Cl)cncc6Cl)noc5C5CC5)(CC3)CC4)n2)cc(C(F)(F)F)c1 [Example 440]', 'Condition not met'),
  ('COc1cc(C(=O)O)c(OC)c(-c2noc(C34CCC(OCc5c(-c6c(Cl)cncc6Cl)noc5C5CC5)(CC3)CC4)n2)c1 [Example 246]', 'Condition met'),
  ('O=C(O)c1cc(C2CC2)c2cc(OCC34CCC(OCc5c(-c6c(Cl)cncc6Cl)noc5C5CC5)(CC3)CC4)ccc2n1 [Example 324]', 'Condition met');

Determine if Cn1cc(C(=O)O)c2ccc(OCC34CCC(OCc5c(-c6ccccc6OC(F)(F)F)noc5C5CC5)(CC3)CC4)cc21 [Example 84] shows EC50 strictly lower than 200 nM. Condition not met

O=C(O)c1cccc(C#CC23CCC(OCc4c(-c5c(Cl)cccc5Cl)noc4C4CC4)(CC2)CC3)c1 [Example 130] , same question. Condition met

Oc1ccc(-c2noc(C34CCC(OCc5c(-c6c(Cl)cncc6Cl)noc5C5CC5)(CC3)CC4)n2)cc1-c1nnn[nH]1 [Example 242] , same question. Condition not met

O=C(O)c1cncc(OCC23CCC(OCc4c(-c5c(Cl)cccc5Cl)noc4C4CC4)(CC2)CC3)c1 [Example 109] , same question. Condition met

---

Test system: FXR (Homo sapiens (Human))
Assay explanation: transient human FXR/Gal4-luciferase reporter assay
Assay type: cell-based
Conditions: Gal4-hFXR LBD fusion in HEK293 reporter cells; relative to 8 μM GW-4064
Property: pEC50; scope: individual compounds
# pEC50 is unitless: minus log10 of the molar concentration; print number only

Recorded pEC50, per entry:
INSERT INTO assay_data (smiles_record, metric, reported) VALUES
  ('CCOc1nc(C(=O)O)cc2ccc(/C=C/C34CCC(OCc5c(-c6c(Cl)cncc6Cl)noc5C5CC5)(CC3)CC4)cc12', 'pEC50', 7.36),
  ('O=C(O)c1cc(C(F)(F)F)cc(COCC23CCC(OCc4c(-c5c(Cl)cncc5Cl)noc4C4CC4)(CC2)CC3)n1', 'pEC50', 7.07),
  ('CN(C)C1CN(c2nc(C(=O)O)cc3ccc(C#CC45CCC(OCc6c(-c7c(Cl)cncc7Cl)noc6C6CC6)(CC4)CC5)cc23)C1', 'pEC50', 7.21),
  ('O=C(O)COc1cc(/C=C/C23CCC(OCc4c(-c5c(Cl)cncc5Cl)noc4C4CC4)(CC2)CC3)ccn1', 'pEC50', 5.83),
  ('O=C(O)c1cc2ccc(C#CC34CCC(OCc5c(-c6c(Cl)cncc6Cl)noc5C5CC5)(CC3)CC4)cc2c(N2CC(O)C2)n1', 'pEC50', 7.00);

Which measured pEC50 value corresponds to "O=C(O)c1cc2ccc(C#CC34CCC(OCc5c(-c6c(Cl)cncc6Cl)noc5C5CC5)(CC3)CC4)cc2c(OCCN2CCCC2)n1" ? 5.86

"CCc1cc(C(=O)O)c2ncc(C#CC34CCC(OCc5c(-c6c(Cl)cncc6Cl)noc5C5CC5)(CC3)CC4)n2c1" , same question. 8.15
